Origin of measurements: paper PMC7802075

Overview of recorded 20mM inhibition LmjIPCS for various compounds
# ASSAYED TARGET: LmjIPCS (inositol phosphorylceramide synthase from L. major) (Leishmania major, UniProt E9AFX2)
# PROTOCOL DESCRIPTION: biochemical
# Type: biochemical
State the answer as a number, implicitly in %.

OCCOCCN1CCN(C(c2ccccc2)c2ccc(Cl)cc2)CC1 (centres unmarked) [HYDROXYZINE PAMOATE] :: 45
CCCCCC(=O)O[C@]1(C(C)=O)CC[C@H]2[C@@H]3CCC4=CC(=O)CC[C@]4(C)[C@H]3CC[C@@]21C [HYDROXYPROGESTERONE CAPROATE] :: 57
O=C(CCCN1CCN(c2ccccn2)CC1)c1ccc(F)cc1 :: 35

Now consider a different compound.
Problem: Please give the measured 20mM inhibition LmjIPCS for this compound: `Cc1cc(N)c2ccccc2[n+]1CCCCCCCCCC[n+]1c(C)cc(N)c2ccccc21`
Result: 72

====

# System: L. major ΔLmjLCB2 mutant promastigotes
# PROTOCOL DESCRIPTION: microbe, parasite or virus in culture
# Format: cell-based
# CONDITION INFO: Leishmania major; sphingolipid-free mutant, 48 h; read-out: EC50 ΔLmjLCB2 parasites
MEASURED PARAMETER: EC50 (nM)
State the answer as a number, implicitly in nM.

Problem: Please give the measured EC50 for this compound: C[C@@H]1C[C@@H]([C@H](O)CC2CC(=O)NC(=O)C2)C(=O)[C@@H](C)C1 [cycloheximide, reference compound]
Result: 20

====

# ASSAYED TARGET: LmjIPCS (inositol phosphorylceramide synthase from L. major) (Leishmania major, UniProt E9AFX2)
# PROTOCOL DESCRIPTION: biochemical
# Format: biochemical
MEASURED PARAMETER: 20mM inhibition LmjIPCS (%)
State the answer as a number, implicitly in %.

For orientation, consider the following solved cases.
CC(C)CC(N(C)C)C1(c2ccc(Cl)cc2)CCC1 (centres unmarked) :: 74
OC(CCN1CCCCC1)(c1ccccc1)C1CCCCC1 (centres unmarked) :: 57
CN[C@@H](C)[C@H](O)c1ccccc1 :: 8

Problem: Please give the measured 20mM inhibition LmjIPCS for this compound: CN(C)CCC(c1ccc(Cl)cc1)c1ccccn1 (centres unmarked)
Result: 68

Problem: Please give the measured 20mM inhibition LmjIPCS for this compound: `O=C(O)c1cc([N+](=O)[O-])ccc1NCCCc1ccccc1`
Result: 15

====

# ASSAYED TARGET: LmjIPCS (inositol phosphorylceramide synthase from L. major) (Leishmania major, UniProt E9AFX2)
# Sequence (E9AFX2 1-338): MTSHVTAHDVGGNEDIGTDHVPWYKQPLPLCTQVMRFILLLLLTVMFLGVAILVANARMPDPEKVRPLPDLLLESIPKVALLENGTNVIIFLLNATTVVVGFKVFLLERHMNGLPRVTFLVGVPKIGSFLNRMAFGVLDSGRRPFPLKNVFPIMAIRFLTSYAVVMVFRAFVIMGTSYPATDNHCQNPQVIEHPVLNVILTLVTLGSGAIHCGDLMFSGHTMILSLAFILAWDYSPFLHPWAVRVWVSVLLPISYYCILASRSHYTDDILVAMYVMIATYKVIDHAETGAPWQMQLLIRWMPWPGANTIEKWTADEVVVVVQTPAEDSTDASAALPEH
# PROTOCOL DESCRIPTION: biochemical
# Type: biochemical
# Set-up: dose or concentration left out as unconfirmed
# CONDITION INFO: NINDS set screen; read-out: inhibition LmjIPCS
Use fulfilled when the recorded inhibition is no lower than 10%; use not fulfilled when it is lower.

CC[C@H]1OC(=O)[C@H](C)[C@@H](O[C@H]2C[C@@](C)(OC)[C@@H](O)[C@H](C)O2)[C@H](C)[C@@H](O[C@@H]2O[C@H](C)C[C@H](N(C)C)[C@H]2O)[C@](C)(O)C[C@@H](C)CN(C)[C@H](C)[C@@H](O)[C@]1(C)O :: fulfilled

Now consider the entry below.
Problem: Could you tell me if the measured inhibition of CC(=O)O[C@]1(C(C)=O)CC[C@H]2[C@@H]3C[C@H](C)C4=CC(=O)CC[C@]4(C)[C@H]3CC[C@@]21C [MEDROXYPROGESTERONE ACETATE] reaches 10% or more?
Result: fulfilled
